Target: T1, human MSLN-R2-his protein (human, UniProt Q13421 391-486)
T1 construct: Region 2 of human mesothelin, made in HEK293E cells, His-tagged; also called human MSLN-R2 protein; hMSLN-R2-his; not shown: His tag
T1 sequence (Q13421 other isoform, or with tags, fused parts or gaps): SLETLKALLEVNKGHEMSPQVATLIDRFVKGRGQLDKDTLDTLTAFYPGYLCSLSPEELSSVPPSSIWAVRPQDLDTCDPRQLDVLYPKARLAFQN
Test: ELISA on coated MSLN-R2; no antibody (blank)
Known OD450 of a selection of binders

binder: S009-F8-8.22 (antibody, human IgG1, kappa, V domains shown) VH: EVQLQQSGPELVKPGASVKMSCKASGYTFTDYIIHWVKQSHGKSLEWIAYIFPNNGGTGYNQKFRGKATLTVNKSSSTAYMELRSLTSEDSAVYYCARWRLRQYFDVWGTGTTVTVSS VL: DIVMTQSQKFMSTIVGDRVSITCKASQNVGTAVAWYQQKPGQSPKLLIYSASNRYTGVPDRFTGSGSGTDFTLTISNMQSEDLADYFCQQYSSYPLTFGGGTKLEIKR
quantity-unit: OD450
OD450: 0.04
--
binder: S009-F8-29.1 (antibody, human IgG1, kappa, V domains shown) VH: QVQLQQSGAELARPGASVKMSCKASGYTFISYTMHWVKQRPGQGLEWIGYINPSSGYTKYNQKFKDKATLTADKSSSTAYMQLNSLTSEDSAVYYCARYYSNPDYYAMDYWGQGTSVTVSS VL: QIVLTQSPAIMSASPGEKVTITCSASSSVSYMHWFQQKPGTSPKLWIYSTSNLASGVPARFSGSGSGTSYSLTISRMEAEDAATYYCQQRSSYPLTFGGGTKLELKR
quantity-unit: OD450
OD450: 0.04
--
binder: S009-F8-5.15 (antibody, human IgG1, kappa, V domains shown) VH: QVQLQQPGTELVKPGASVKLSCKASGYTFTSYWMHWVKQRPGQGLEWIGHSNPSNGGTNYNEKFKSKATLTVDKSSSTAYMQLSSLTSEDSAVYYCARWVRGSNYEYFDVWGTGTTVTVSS VL: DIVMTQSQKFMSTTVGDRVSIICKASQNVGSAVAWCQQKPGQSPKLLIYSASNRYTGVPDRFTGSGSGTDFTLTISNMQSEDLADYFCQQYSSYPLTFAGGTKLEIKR
quantity-unit: OD450
OD450: 0.05
--
binder: S009-F8-32.3 (antibody, human IgG1, kappa, V domains shown) VH: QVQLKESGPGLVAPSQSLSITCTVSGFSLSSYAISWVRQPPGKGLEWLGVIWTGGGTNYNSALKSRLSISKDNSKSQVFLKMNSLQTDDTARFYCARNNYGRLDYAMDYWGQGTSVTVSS VL: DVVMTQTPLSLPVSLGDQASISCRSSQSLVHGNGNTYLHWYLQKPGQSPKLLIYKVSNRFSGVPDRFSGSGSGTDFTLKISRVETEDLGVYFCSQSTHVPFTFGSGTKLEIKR
quantity-unit: OD450
OD450: 0.04
--
binder: S009-F8-9.16 (antibody, human IgG1, kappa, V domains shown) VH: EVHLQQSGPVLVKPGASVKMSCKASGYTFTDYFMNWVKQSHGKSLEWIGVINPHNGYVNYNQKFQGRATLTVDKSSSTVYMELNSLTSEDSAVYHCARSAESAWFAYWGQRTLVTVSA VL: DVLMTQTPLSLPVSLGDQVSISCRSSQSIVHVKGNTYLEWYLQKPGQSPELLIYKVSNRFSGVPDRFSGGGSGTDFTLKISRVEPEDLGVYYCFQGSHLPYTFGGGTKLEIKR
quantity-unit: OD450
OD450: 0.05
--
binder: S009-F8-15.19 (antibody, human IgG1, kappa, V domains shown) VH: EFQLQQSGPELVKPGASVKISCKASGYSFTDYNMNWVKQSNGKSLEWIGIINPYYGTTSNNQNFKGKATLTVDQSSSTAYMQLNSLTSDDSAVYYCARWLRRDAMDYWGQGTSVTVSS VL: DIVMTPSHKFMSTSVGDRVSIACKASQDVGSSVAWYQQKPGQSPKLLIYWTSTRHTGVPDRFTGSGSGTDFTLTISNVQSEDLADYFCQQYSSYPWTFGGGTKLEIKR
quantity-unit: OD450
OD450: 0.05
--
binder: S009-F8-24.14 (antibody, human IgG1, kappa, V domains shown) VH: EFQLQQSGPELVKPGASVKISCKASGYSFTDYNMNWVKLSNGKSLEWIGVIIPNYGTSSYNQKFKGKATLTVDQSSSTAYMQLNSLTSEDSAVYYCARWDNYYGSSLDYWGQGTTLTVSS VL: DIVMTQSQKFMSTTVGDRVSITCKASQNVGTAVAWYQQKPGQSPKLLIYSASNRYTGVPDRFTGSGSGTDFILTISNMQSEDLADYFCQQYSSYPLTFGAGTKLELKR
quantity-unit: OD450
OD450: 0.04
--
binder: S009-F8-22.23 (antibody, human IgG1, kappa, V domains shown) VH: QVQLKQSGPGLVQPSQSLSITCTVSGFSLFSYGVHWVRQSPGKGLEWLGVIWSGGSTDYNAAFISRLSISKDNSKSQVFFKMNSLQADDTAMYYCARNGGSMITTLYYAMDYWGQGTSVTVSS VL: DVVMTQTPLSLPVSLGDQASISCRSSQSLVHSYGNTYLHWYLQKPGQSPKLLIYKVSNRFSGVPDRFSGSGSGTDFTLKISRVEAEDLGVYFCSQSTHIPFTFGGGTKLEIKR
quantity-unit: OD450
OD450: 0.04
--
binder: S009-F8-27.1 (antibody, human IgG1, kappa, V domains shown) VH: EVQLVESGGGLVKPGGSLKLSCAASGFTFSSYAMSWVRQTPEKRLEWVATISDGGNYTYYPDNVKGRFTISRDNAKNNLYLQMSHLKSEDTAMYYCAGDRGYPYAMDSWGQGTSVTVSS VL: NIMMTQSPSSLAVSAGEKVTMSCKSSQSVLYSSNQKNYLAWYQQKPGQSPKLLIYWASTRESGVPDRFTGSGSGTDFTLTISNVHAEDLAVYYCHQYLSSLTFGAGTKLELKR
quantity-unit: OD450
OD450: 0.05
--
binder: S009-F8-19.21 (antibody, human IgG1, kappa, V domains shown) VH: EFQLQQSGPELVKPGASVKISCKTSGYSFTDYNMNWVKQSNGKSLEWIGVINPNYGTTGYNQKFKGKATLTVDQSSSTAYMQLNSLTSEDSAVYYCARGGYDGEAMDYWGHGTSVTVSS VL: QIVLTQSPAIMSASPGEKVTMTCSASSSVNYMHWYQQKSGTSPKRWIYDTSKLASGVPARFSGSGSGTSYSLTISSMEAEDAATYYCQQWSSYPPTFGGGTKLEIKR
quantity-unit: OD450
OD450: 0.05
--
binder: S009-F8-4.5 (antibody, human IgG1, kappa, V domains shown) VH: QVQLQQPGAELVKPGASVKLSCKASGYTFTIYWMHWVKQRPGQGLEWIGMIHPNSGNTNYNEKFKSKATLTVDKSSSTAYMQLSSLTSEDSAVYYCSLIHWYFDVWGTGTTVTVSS VL: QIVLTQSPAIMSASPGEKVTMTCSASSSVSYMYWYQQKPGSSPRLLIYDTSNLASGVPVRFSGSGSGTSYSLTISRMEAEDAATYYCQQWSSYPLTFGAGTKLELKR
quantity-unit: OD450
OD450: 0.05
